Recorded melting point values for a group of compounds are listed next.

Below, 3 compounds whose answers are already recorded.
Challenge: Quick one: melting point of CC(Nc1cccc2cc(C)oc12)=C1C(=O)CC(c2ccccc2)CC1=O (stereo not shown) [Compound 14] ?
Response given: 127 to 129 °C

Challenge: Quick one: melting point of COC(=O)c1cc2cccc(NC(C)=C3C(=O)CC(c4ccccc4)CC3=O)c2o1 (stereo not shown) [Compound 20] ?
Response given: 178 to 180 °C

Challenge: Quick one: melting point of CC(Nc1cccc2cc(CO)oc12)=C1C(=O)CC(c2ccccc2)CC1=O (stereo not shown) [Compound 22] ?
Response given: 120 to 122 °C

Continuing:
Challenge: Quick one: melting point of CNC(=O)c1cc2cccc(NC(C)=C3C(=O)CC(c4ccccc4)CC3=O)c2o1 (stereo not shown) [Compound 21] ?
Response given: 108 to 110 °C
